Target: recombinant USP30 (amino acids 57-517 of the human sequence) (Homo sapiens (Human), UniProt Q70CQ3)
Sequence (Q70CQ3 57-517): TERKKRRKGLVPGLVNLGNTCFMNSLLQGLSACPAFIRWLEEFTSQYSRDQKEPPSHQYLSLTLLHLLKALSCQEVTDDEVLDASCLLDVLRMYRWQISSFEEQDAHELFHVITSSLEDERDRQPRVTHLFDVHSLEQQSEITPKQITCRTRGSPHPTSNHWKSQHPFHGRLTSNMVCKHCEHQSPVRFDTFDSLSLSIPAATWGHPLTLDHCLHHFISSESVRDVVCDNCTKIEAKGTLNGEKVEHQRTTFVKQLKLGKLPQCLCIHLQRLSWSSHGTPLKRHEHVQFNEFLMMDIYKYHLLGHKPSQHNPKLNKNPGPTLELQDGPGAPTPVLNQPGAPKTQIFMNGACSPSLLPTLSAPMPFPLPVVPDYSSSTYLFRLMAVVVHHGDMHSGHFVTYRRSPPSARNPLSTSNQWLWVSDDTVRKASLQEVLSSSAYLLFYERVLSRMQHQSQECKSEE
Assay: In vitro USP30 biochemical assay (Ubiquitin-Rhodamine substrate)
Settings: […] recombinant USP30, 25 nM Ubiquitin-Rhodamine, fluorescence
MEASURE: IC50

Example results:
Need IC50, item O=C(N[C@@H](Cc1ccccc1)C(=O)Nc1ccc(S(=O)(=O)NC2(CO)CC2)cc1)c1ccc(F)cc1 [Compound I-131]
< 0.05 µM

Again, but for C[C@H](CO)NS(=O)(=O)c1ccc(NC(=O)[C@H](Cc2ccccc2)NC(=O)c2ccc(F)cc2)cc1 [Compound I-130]
< 0.05 µM

Again, but for CC(C)(C)NS(=O)(=O)c1cccc2c(NC(=O)[C@H](Cc3ccccc3)NC(=O)C3CCNCC3)cccc12 [Compound I-187]
> 10 µM

More entries:
Need IC50, item CC(C)(C)NS(=O)(=O)c1ccc(NC(=O)[C@H](Cc2ccccc2)NC(=O)c2ccc(F)cc2)cc1O [Compound I-63]
< 0.05 µM

---

Target: USP30 (Homo sapiens (Human), UniProt Q70CQ3)
Sequence (Q70CQ3 whole entry): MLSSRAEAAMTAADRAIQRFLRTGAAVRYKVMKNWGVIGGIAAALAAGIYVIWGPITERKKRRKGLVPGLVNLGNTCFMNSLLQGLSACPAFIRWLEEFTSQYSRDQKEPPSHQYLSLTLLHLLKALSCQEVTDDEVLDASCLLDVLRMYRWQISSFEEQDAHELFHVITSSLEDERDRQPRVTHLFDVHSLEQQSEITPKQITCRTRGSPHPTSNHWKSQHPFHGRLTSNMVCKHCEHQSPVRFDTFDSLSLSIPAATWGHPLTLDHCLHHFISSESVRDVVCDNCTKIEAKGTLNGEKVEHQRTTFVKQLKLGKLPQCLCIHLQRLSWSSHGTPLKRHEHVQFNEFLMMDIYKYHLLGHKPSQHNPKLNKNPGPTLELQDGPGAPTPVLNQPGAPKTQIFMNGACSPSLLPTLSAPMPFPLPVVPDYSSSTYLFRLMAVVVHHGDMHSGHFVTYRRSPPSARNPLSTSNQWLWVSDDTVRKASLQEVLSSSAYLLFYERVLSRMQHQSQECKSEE
Test: Dundee MALDI-TOF mass spectrometry assay (K48-linked diubiquitin cleavage)
Format: biochemical
Settings: USP30 25 ng/μl, K48-linked diubiquitin 5.6 μM, read-out: USP30 IC50 μM (avg)
MEASURE: IC50

Example results:
Need IC50, item O=C(N[C@@H](Cc1ccccc1)C(=O)Nc1ccc(S(=O)(=O)NC2(CO)CC2)nc1)c1ccc(F)cc1
< 0.05 µM

Again, but for COc1cc(NC(=O)[C@H](CC2CCNCC2)NC(=O)c2ccc(F)cc2)ccc1S(=O)(=O)NC1COC1
< 0.05 µM

Again, but for COc1cc(NC(=O)[C@H](CC2CCNCC2)NC(=O)c2ccc(F)cc2)ccc1S(=O)(=O)NC(C)(C)CF
0.05 to 1 µM

Again, but for CC(C)(C)NS(=O)(=O)c1ccc(NC(=O)[C@H](CC2CCOCC2)NC(=O)c2ccc(F)nc2)cc1
< 0.05 µM

Again, but for CC(C)(C)NS(=O)(=O)c1ccc(NC(=O)[C@H](CC2CCN(Cc3ccccc3)CC2)NC(=O)c2ccc(F)cc2)cc1
< 0.05 µM

More entries:
Need IC50, item COc1cc(NC(=O)[C@H](CC2CCN(C(C)=O)CC2)NC(=O)c2ccc(F)cc2)ccc1S(=O)(=O)NC(C)(C)C
< 0.05 µM

Again, but for COc1cc(NC(=O)[C@@H]2C[C@@H](c3ccccc3)CN2C(=O)c2ccc(F)cc2)ccc1S(=O)(=O)NC(C)(C)CO
0.05 to 1 µM

Again, but for CC(C)(C)NS(=O)(=O)c1ccc(NC(=O)C(CC2CCN(CCO)CC2)NC(=O)c2ccc(F)cc2)cc1 (centres unmarked)
< 0.05 µM

Again, but for N#CN1CC[C@@H](NC(=O)[C@H](Cc2ccccc2)NC(=O)c2ccc(F)cc2)C1
0.05 to 1 µM

Again, but for Cn1nccc1CNS(=O)(=O)c1ccc(NC(=O)[C@H](Cc2ccccc2)NC(=O)c2ccc(F)cc2)cc1
0.05 to 1 µM

---

Target: USP30 (Homo sapiens (Human))
Experiment: Dundee MALDI-TOF mass spectrometry assay (K48-linked diubiquitin cleavage)
Format: biochemical
Conditions: USP30 25 ng/μl, K48-linked diubiquitin 5.6 μM, read-out: USP30 IC50 μM (avg)
Measured IC50 by item

Example results:
Need IC50, item CN1CCC(C[C@H](NC(=O)c2ccc(F)cc2)C(=O)Nc2ccc(S(=O)(=O)NC3CCOCC3)cc2)CC1
< 0.05 µM

Again, but for CC(C)(CO)NS(=O)(=O)c1ccc(NC(=O)C(CC2CCNCC2)NC(=O)c2ccc(F)cc2)cc1 (stereo not shown)
0.05 to 1 µM

Again, but for CC(C)(CF)NS(=O)(=O)c1ccc(NC(=O)[C@H](CC2CCOCC2)NC(=O)c2ccc(F)cc2)cc1
< 0.05 µM

Read the next record carefully.
Need IC50, item CC(C)(C)NS(=O)(=O)c1ccc(NC(=O)[C@H](Cc2ccccc2)NC(=O)c2ccon2)cc1
0.05 to 1 µM

---

Target: recombinant USP30 (amino acids 57-517 of the human sequence) (Homo sapiens (Human))
Test: In vitro USP30 biochemical assay (Ubiquitin-Rhodamine substrate)
Settings: […] recombinant USP30, 25 nM Ubiquitin-Rhodamine, fluorescence
MEASURE: IC50

Example results:
Need IC50, item CC(C)C[C@H](NC(=O)c1ccc(F)cc1)C(=O)NC1CN(C(=O)OCc2ccccc2)C1 [Compound I-248]
> 10 µM

Again, but for CO[C@H]1C[C@@H](C(=O)Nc2ccc(S(=O)(=O)N[C@@H]3CCOC3)cc2)N(C(=O)c2ccc(F)cc2)C1 [Compound I-288]
> 10 µM

More entries:
Need IC50, item CC(C)(C)NS(=O)(=O)c1ccc(NC(=O)[C@H](CC2CCN(c3ccccc3)CC2)NC(=O)c2ccc(F)cc2)cc1 [Compound I-116]
< 0.05 µM

Again, but for CN1CCC(C[C@H](NC(=O)c2ccc(F)cn2)C(=O)Nc2ccc(S(=O)(=O)NC(C)(C)C)cc2)CC1 [Compound I-185]
< 0.05 µM

Again, but for CC(=O)N1CCC(C[C@H](NC(=O)c2ccc(F)cc2)C(=O)Nc2ccc(S(=O)(=O)NC(C)(C)C)nc2)CC1 [Compound I-156]
< 0.05 µM

Again, but for O=C(N[C@@H](Cc1ccccc1)C(=O)NC1CCN(C(=O)OCc2ccccc2)CC1)c1ccc(F)cc1 [Compound I-113]
> 10 µM

Again, but for CC(C)C[C@H](NC(=O)c1ccc(F)cc1)C(=O)Nc1ccc(S(=O)(=O)NC(C)(C)C)nc1 [Compound I-16]
< 0.05 µM

Again, but for CC(C)(C)NS(=O)(=O)c1ccc(NC(=O)C2CCCCN2C(=O)c2ccc(F)cc2)cc1 (stereo not shown) [Compound I-245]
> 10 µM

---

Measured IC50 by item
Molecular target: recombinant USP30 (amino acids 57-517 of the human sequence) (Homo sapiens (Human), UniProt Q70CQ3)
Test: In vitro USP30 biochemical assay (Ubiquitin-Rhodamine substrate)
Details: 1.5 nM recombinant USP30, 25 nM Ubiquitin-Rhodamine, fluorescence

Example results:
Need IC50, item COc1cc(NC(=O)[C@H](CC2CCN(C)CC2)NC(=O)c2ccc(F)cc2)ccc1S(=O)(=O)NC1CCOCC1 [Compound I-143]
0.05 to 1 µM

Again, but for CN1CCC(C[C@H](NC(=O)c2ccc(F)cc2)[C@@H](O)CNc2ccc(S(=O)(=O)NC(C)(C)C)cc2)CC1 [Compound I-234]
1 to 10 µM

More entries:
Need IC50, item CCNS(=O)(=O)c1ccc(NC(=O)[C@H](Cc2ccccc2)NC(=O)c2ccc(F)cc2)cc1O [Compound I-67]
0.05 to 1 µM

Again, but for COc1cc(NC(=O)[C@H](CC2CCN(C)CC2)NC(=O)c2ccc(F)cc2)cnc1S(=O)(=O)NC(C)(C)C [Compound I-80]
0.05 to 1 µM

Again, but for O=C(N[C@@H](Cc1ccccc1)C(=O)Nc1ccc(S(=O)(=O)NC2COC2)c(O)c1)c1ccc(F)cc1 [Compound I-66]
0.05 to 1 µM

Again, but for CC(C)C[C@H](NC(=O)c1ccc(F)cc1)C(=O)Nc1ccc(S(=O)(=O)NC(C)(C)CCO)cc1 [Compound I-20]
0.05 to 1 µM

Again, but for CC(C)C[C@H](NC(=O)c1ccc(F)cn1)C(=O)Nc1ccc(S(=O)(=O)NC(C)(C)C(F)(F)F)cc1 [Compound I-204]
0.05 to 1 µM

Again, but for CC(C)C[C@H](NC(=O)c1ccc(F)cc1)C(=O)Nc1ccc(S(=O)(=O)NC(C)(C)CO)nc1 [Compound I-17]
0.05 to 1 µM

Again, but for CC(C)(C)NS(=O)(=O)c1ccc(NC(=O)[C@H](CC#N)NC(=O)c2ccc(F)cc2)cc1 [Compound I-243]
0.05 to 1 µM

Again, but for CC(C)(CO)NS(=O)(=O)c1ccc(NC(=O)[C@@H](NC(=O)c2ccc(F)cc2)C(C)(C)c2ccccc2)cc1 [Compound I-62]
1 to 10 µM

Again, but for COc1cc(NC(=O)[C@H](CC2CCOCC2)NC(=O)c2ccc(F)cc2)ccc1S(=O)(=O)NC1COC1 [Compound I-3]
0.05 to 1 µM

Again, but for CN1CCC(C[C@H](NC(=O)c2ccc(F)cc2)C(=O)Nc2ccc(S(=O)(=O)NC(C)(C)C)nc2)CC1 [Compound I-78]
0.05 to 1 µM

Again, but for COc1cc(NC(=O)[C@H](Cc2ccccc2)NC(=O)c2ccc(F)cc2)c(Cl)cc1S(=O)(=O)NC(C)(CO)CO [Compound I-142]
1 to 10 µM

Again, but for COc1cc(NC(=O)[C@H](CC2CCOCC2)NC(=O)c2ccc(F)cc2)ccc1S(=O)(=O)NC1CCN(C)CC1 [Compound I-88]
0.05 to 1 µM

Again, but for CC(C)(CO)NS(=O)(=O)c1ccc(NC(=O)[C@@H]2C[C@@H](c3ccccc3)CN2C(=O)c2ccc(F)cc2)cc1 [Compound I-262]
1 to 10 µM

Again, but for COc1cc(NC(=O)[C@H](Cc2ccccc2)NC(=O)c2ccc(F)cc2)ccc1S(=O)(=O)NC1(CO)CC1 [Compound I-141]
0.05 to 1 µM

Again, but for Cn1cncc1CNS(=O)(=O)c1ccc(NC(=O)[C@H](Cc2ccccc2)NC(=O)c2ccc(F)cc2)cc1 [Compound I-227]
0.05 to 1 µM

Again, but for CN1CCC(C[C@H](NC(=O)c2ccc(F)cc2)C(=O)Nc2ccc(S(=O)(=O)N[C@@H]3CCOC3)nc2)CC1 [Compound I-105]
0.05 to 1 µM

Again, but for COc1cc(NC(=O)[C@H](CC2CCNCC2)NC(=O)c2ccc(F)cc2)ccc1S(=O)(=O)NC(C)(C)CO [Compound I-159]
0.05 to 1 µM

Again, but for CC(C)(CO)NS(=O)(=O)c1ccc(NC(=O)[C@H](CO)NC(=O)c2ccc(F)cc2)cc1 [Compound I-35]
1 to 10 µM

// provenance: patent US20250162989A1
